# Tested system: Hyper-IL-6 (sIL-6R/IL-6 fusion) (UniProt P08887 20-323+P05231:30-212, internal_change)
# Run description: SPR
Measured property: Kd (µM)
Provide the reading as a plain figure in µM.

// returns reported Kd for input GGGTGGGTGGGTGGGT (structured_DNA) [AID-1 (T30923)]
0.49
